These data points were gathered from PubChem BioAssay AID2013.

Biological target: G-protein coupled receptor 55 (Homo sapiens) (UniProt Q9Y2T6)
Sequence (Q9Y2T6 whole entry, looked up): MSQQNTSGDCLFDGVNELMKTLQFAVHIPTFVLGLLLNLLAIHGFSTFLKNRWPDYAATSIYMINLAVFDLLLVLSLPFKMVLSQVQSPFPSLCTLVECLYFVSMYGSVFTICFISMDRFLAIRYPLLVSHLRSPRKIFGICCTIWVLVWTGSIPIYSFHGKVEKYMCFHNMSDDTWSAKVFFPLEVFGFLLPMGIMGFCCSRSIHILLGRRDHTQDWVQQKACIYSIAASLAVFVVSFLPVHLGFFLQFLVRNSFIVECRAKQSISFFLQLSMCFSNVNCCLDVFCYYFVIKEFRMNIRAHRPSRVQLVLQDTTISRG
Experiment: GPR55 antagonists blocking LPI-driven arrestin recruitment, primary screen, imaging, U2OS, beta-arrestin-GFP, LPI agonist (AID 2013);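 note: U2OS cells stably carrying GPR55 and arrestin-GFP stimulated by 5 µM LPI near EC80; imaged beta-arrestin-GFP aggregate spots per cell after agonist stimulation; plate controls were LPI-stimulated DMSO wells for no effect and DMSO wells without LPI for full effect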
Settings: U2OS GPR55 beta-arrestin-GFP translocation imaging, LPI antagonism; at 10 µM; stronger effect = higher value
Among all 290,000 compounds or so, about 370 (0.13%) were called active. Only a selection was taken, and actives are over-represented in it overall. Measured potencies and affinities stand elsewhere.
parameter: inhibition (%)
Form entry: value (%) — number only.

Use these answered entries as a reference point.
compound | units | inhibition
CCCCn1c(=O)[nH]c(=O)c2c1nc(CN1C(=O)c3ccccc3S1(=O)=O)n2CCC | % | 8.3
Cc1cc(NC(=O)NC2CCCN2S(=O)(=O)c2ccc(Cl)cc2)no1 (centres undefined) | % | 8.3
Cn1ccnc1SCC(=O)N1CCc2ccccc21 | % | -2.6

## Input Sample `Cc1ccc(NC(=S)NNC(=O)c2c([N+](=O)[O-])c(C)nn2C)cc1` — what was its inhibition?
## Output -1.6

## Input Please answer likewise for Cc1cccc(NC(=O)C2CC(O)CN2C(=O)Oc2ccccc2)c1 (centres undefined)
## Output 2.6

## Input Please do the same for `CCOC(=O)/C(=C\c1ccccc1)C(=O)c1cc(C(C)=O)c(Nc2ccccc2)s1` as well.
## Output -0.8

## Input What about `CN(C1CCCCC1)S(=O)(=O)c1ccc(NC(=O)C2CCCCC2)cc1` ?
## Output 0.9

## Input Same again, this time with CC(C(=O)NCc1cccs1)N1C(=O)c2ccccc2C1=O (centres undefined)
## Output 17.5

## Input And for `Cc1cc(C(=O)CSc2nnnn2-c2ccc(O)cc2)c(C)n1C` ?
## Output 3.7

## Input # iterate: `COc1cccc(NC(=O)c2cccc(C(=O)Nc3cccc(OC)c3)c2)c1`
## Output -0.6

## Input Lookup `Cc1noc(NS(=O)(=O)c2ccc(NC(=O)c3cc(-c4ccccc4Cl)nc4ccccc34)cc2)c1C`
## Output 14.9

## Input Continue with `CC(=O)c1c(C)nc2ccccn12`
## Output 5.4

## Input Now try `Cc1nc(-c2ccc([N+](=O)[O-])cc2)sc1C(=O)O` .
## Output 6.9

----------
Molecular target: G-protein coupled receptor 55 (Homo sapiens)
Assay: GPR55 antagonists blocking LPI-driven arrestin recruitment, primary screen, imaging, U2OS, beta-arrestin-GFP, LPI agonist (AID 2013);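 note: U2OS cells stably carrying GPR55 and arrestin-GFP stimulated by 5 µM LPI near EC80; imaged beta-arrestin-GFP aggregate spots per cell after agonist stimulation; plate controls were LPI-stimulated DMSO wells for no effect and DMSO wells without LPI for full effect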
Settings: U2OS GPR55 beta-arrestin-GFP translocation imaging, LPI antagonism; at 10 µM; stronger effect = higher value
The whole screen tested about 290,000 compounds, of which about 370 (0.13%) were called active. This is one part of a sample in which actives are shown more often than they occur. Measured potencies and affinities stand elsewhere.
Values of inhibition greater than or equal to 10% map to t; values below map to f.

Consider the following illustrative entries.
compound | assigned class
COc1cc2ncc(C(=O)c3ccccc3)c(N3CCN(Cc4ccccc4)CC3)c2cc1OC | f
N#CC(C#N)=C1C=C2C=C(N3CCCCC3)CCC2CC1 (configuration not stated) | f
COC(=O)c1c(NC(NC(=O)CC(C)C)C(Cl)(Cl)Cl)sc2c1CCC2 (configuration not stated) | t
COC(=O)c1c(NC(NC(C)=O)C(Cl)(Cl)Cl)sc2c1CCCC2 (configuration not stated) | t
O=C1/C(=C/c2cccnc2)SC(=S)N1C1CCS(=O)(=O)C1 (configuration not stated) | f

## Input Record COC(=O)c1c(NC(NC(=O)C(C)C)C(Cl)(Cl)Cl)sc2c1CCCC2 (configuration not stated) ; criterion: inhibition no lower than 10%. Met?
## Output t

## Input What would you report for `COc1ccccc1-c1c(-c2ccc(O)cc2O)n[nH]c1C(F)(F)F` ?
## Output f

## Input Also need `COc1ccc(-c2cn[nH]c2-c2ccc(OCC(=O)NN)cc2O)cc1` , thanks.
## Output f

## Input Then what about the compound O=C(NC1CCCN(c2ccc(C(F)(F)F)cn2)C1)c1cc(Cl)ccc1F (configuration not stated) ?
## Output f
